- Assayed target: Orexin/Hypocretin receptor type 1 (Homo sapiens) (UniProt O43613)
- Sequence (O43613 whole entry): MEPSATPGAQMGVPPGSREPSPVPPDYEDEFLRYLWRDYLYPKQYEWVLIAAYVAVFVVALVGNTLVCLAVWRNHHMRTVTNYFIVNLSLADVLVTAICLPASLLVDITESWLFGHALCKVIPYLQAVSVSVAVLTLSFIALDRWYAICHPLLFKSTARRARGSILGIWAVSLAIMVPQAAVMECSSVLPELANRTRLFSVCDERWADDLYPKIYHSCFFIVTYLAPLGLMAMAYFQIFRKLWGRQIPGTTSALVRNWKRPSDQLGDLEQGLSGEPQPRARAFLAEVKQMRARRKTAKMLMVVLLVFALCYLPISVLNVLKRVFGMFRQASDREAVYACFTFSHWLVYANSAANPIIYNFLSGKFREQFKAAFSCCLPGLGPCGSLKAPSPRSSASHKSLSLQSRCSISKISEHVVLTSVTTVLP
- Procedure text: Agonist activity at OX1R (unknown origin) expressed in CHO cells at 10 uM by cell based calcium assay relative to orexin A

Compound | Assayed target | Uom | Emax
CCCCCCCCS(=O)(=O)NC[C@@]1(C)O[C@@H]2CO[C@H]3N2[C@@H]1O[C@@]3(C)CNS(=O)(=O)CCCCCCCC | Orexin/Hypocretin receptor type 1 (Homo sapiens) (UniProt O43613) | % | 3.86
CCCS(=O)(=O)NC[C@@]1(C)O[C@@H]2CO[C@H]3N2[C@@H]1O[C@]3(C)CNS(=O)(=O)CCC | Orexin/Hypocretin receptor type 1 (Homo sapiens) (UniProt O43613) | % | 14.2
CCCCCCCCS(=O)(=O)N(C)C[C@@]1(C)O[C@@H]2CO[C@H]3N2[C@@H]1O[C@]3(C)CN(C)S(=O)(=O)CCCCCCCC | Orexin/Hypocretin receptor type 1 (Homo sapiens) (UniProt O43613) | % | 2.65
CC(C)(C)OC(=O)NC[C@]1(C)O[C@@H]2CO[C@H]3N2[C@@H]1O[C@@]3(C)CNC(=O)OC(C)(C)C (stereo in doubt; 20a) | Orexin/Hypocretin receptor type 1 (Homo sapiens) (UniProt O43613) | % | 30.1
